Cited source: ChEMBL document CHEMBL1131103

// reported IC50 for each item listed
Organism: Bos taurus
Test: Polymerizing activity of tubulin in glutamate against bovine brain tubulin homogenate was measured at 0.4 M concentrations
Assay type: functional

Here is how some molecules turned out for IC50.
>>> endpoint_value("CC(=O)O[C@H]1C(=O)[C@@]2(C)[C@H]([C@H](OC(=O)c3ccccc3N=[N+]=[N-])[C@]3(O)C[C@H](OC(=O)[C@H](O)[C@@H](NC(=O)c4ccccc4)c4ccccc4)C(C)=C1C3(C)C)[C@]1(OC(C)=O)CO[C@@H]1C[C@@H]2O")
"0.38 relative to paclitaxel"
>>> endpoint_value("CC(=O)O[C@H]1C(=O)[C@@]2(C)[C@H]([C@H](OC(=O)c3cccc(OC(C)C)c3)[C@]3(O)C[C@H](OC(=O)[C@H](O)[C@@H](NC(=O)c4ccccc4)c4ccccc4)C(C)=C1C3(C)C)[C@]1(OC(C)=O)CO[C@@H]1C[C@@H]2O")
"> 1.7 relative to paclitaxel"

(Q) Could you share which IC50 value was measured for `CC(=O)O[C@H]1C(=O)[C@@]2(C)[C@H]([C@H](OC(=O)c3cc(N=[N+]=[N-])cc(N=[N+]=[N-])c3)[C@]3(O)C[C@H](OC(=O)[C@H](O)[C@@H](NC(=O)c4ccccc4)c4ccccc4)C(C)=C1C3(C)C)[C@]1(OC(C)=O)CO[C@@H]1C[C@@H]2O` ?
(A) > 1.7 relative to paclitaxel
